Parameter herbicidal effect in percent, SETVI: see the listing below.
System: Setaria viridis (green foxtail)
Test: Pre-emergence herbicidal effect, SETVI
Assay type: in vivo
Details: 80 g of active compound/ha, scored after about 3 weeks
From the text: 1. Pre-emergence herbicidal effect and crop plant compatibility • Seeds of monocotyledonous or dicotyledonous weed plants or crop plants are planted in wood-fiber pots in sandy loam and covered with soil. […]
readout_label: herbicidal effect in percent, SETVI (%)

compound: CC1(C)CC([S@@+]([O-])Cc2c(F)cccc2F)=NO1 [Compound 6]
target_desc: Setaria viridis (green foxtail)
measurement: 60
//
compound: CC1(C)CC([S@+]([O-])Cc2c(F)cccc2F)=NO1 [Compound 228]
target_desc: Setaria viridis (green foxtail)
measurement: 0
//
compound: Cn1nc(C(F)(F)F)c(C[S@+]([O-])C2=NOC(C)(C)C2)c1OC(F)F [Compound 483]
target_desc: Setaria viridis (green foxtail)
measurement: 90
//
compound: CC1(C)CC([S+]([O-])Cc2c(F)cccc2F)=NO1 (racemic) [Racemate of 6 (S config.) and 228 (R config.), reference compound]
target_desc: Setaria viridis (green foxtail)
measurement: 40
//
compound: Cn1nc(C(F)(F)F)c(C[S+]([O-])C2=NOC(C)(C)C2)c1OC(F)F (racemic) [Racemate of 483 (S config.) and 664 (R config.), reference compound]
target_desc: Setaria viridis (green foxtail)
measurement: 80

---

test system: Alopecurus myosuroides (black-grass); test: Pre-emergence herbicidal effect, ALOMY; assay type: in vivo; details: 20 g of active compound/ha, scored after about 3 weeks
readout_label: herbicidal effect in percent, ALOMY (%)

compound: Cn1nc(C(F)(F)F)c(C[S@+]([O-])C2=NOC(C)(C)C2)c1OC(F)F
readout_label: herbicidal effect in percent, ALOMY
measurement: 80
--
compound: CC1(C)CC([S@+]([O-])Cc2c(Cl)cccc2Cl)=NO1
readout_label: herbicidal effect in percent, ALOMY
measurement: 0
--
compound: Cn1nc(C(F)(F)F)c(C[S+]([O-])C2=NOC(C)(C)C2)c1OC(F)F (racemic) [Racemate of 483 (S config.) and 664 (R config.), reference compound]
readout_label: herbicidal effect in percent, ALOMY
measurement: 0
--
compound: CC1(C)CC([S+]([O-])Cc2c(Cl)cccc2Cl)=NO1 (racemic) [Racemate of 32 (S config.) and 254 (R config.), reference compound]
readout_label: herbicidal effect in percent, ALOMY
measurement: 80
--
compound: CC1(C)CC([S@@+]([O-])Cc2c(Cl)cccc2Cl)=NO1
readout_label: herbicidal effect in percent, ALOMY
measurement: 80

---

Parameter herbicidal effect in percent, LOLMU: see the listing below.
system: Lolium multiflorum (Italian ryegrass); assay: Pre-emergence herbicidal effect, LOLMU; format: in vivo; details: 80 g of active compound/ha, scored after about 3 weeks

molecule: CC1(C)CC([S+]([O-])Cc2c(F)cccc2F)=NO1 (racemic) [Racemate of 6 (S config.) and 228 (R config.), reference compound]
herbicidal effect in percent, LOLMU: 80%
//
molecule: CC1(C)CC([S@+]([O-])Cc2c(F)cccc2F)=NO1
herbicidal effect in percent, LOLMU: 0%
//
molecule: Cn1nc(C(F)(F)F)c(C[S+]([O-])C2=NOC(C)(C)C2)c1OC(F)F (racemic) [Racemate of 483 (S config.) and 664 (R config.), reference compound]
herbicidal effect in percent, LOLMU: 90%
//
molecule: CC1(C)CC([S@@+]([O-])Cc2c(F)cccc2F)=NO1
herbicidal effect in percent, LOLMU: 80%
//
molecule: Cn1nc(C(F)(F)F)c(C[S@+]([O-])C2=NOC(C)(C)C2)c1OC(F)F
herbicidal effect in percent, LOLMU: 100%
